The reported numbers originate from patent US9416144B2.

- Experimental Details: In vivo pharmacokinetic assays in rats (intragastric and intravenous), plasma Compound 14 by LC-MS/MS
- Set-up: species or system SD rats
- Cond: male, SD, rat, in vivo, po, 15 mg/kg, 15 mg/kg Compound 14 intragastric, average value
Result Type: half-life
Note to self: number, then unit, no commentary.

So for CN1CC(c2ccc(-c3ccc4c(c3)OC[C@H]3[C@H](CO)OC(=O)N43)cn2)OC1=O (stereo partly shown) [Compound 14] , the logged half-life turned out to be 1.93 h

* * *

Would you mind telling me the reported melting point of each entry?

// recorded melting point for `N#Cc1ccc(-c2ccc3c(c2)OC[C@H]2[C@H](COC(=O)CCC(=O)O)OC(=O)N32)cn1` : 313 to 315 °C

Lab note: `CC(=O)c1ccc(-c2ccc3c(c2)OC[C@H]2[C@H](CO)OC(=O)N32)cn1` gave melting point of 199 to 201 °C

So, `Cc1cc(N2CCOC2=O)ncc1-c1ccc2c(c1)OC[C@H]1[C@H](CO)OC(=O)N21` ? Its melting point was 245 to 246 °C

Entry `Cc1cc(C#N)ncc1-c1ccc2c(c1)OC[C@H]1[C@H](CO)OC(=O)N21` , melting point reported as 238 to 240 °C

The reported melting point of the compound O=C1O[C@@H](CO)[C@@H]2COc3cc(-c4ccc(C(O)CO)nc4)ccc3N12 (stereo partly drawn) was 150 to 152 °C

Entry `O=C1O[C@@H](CO)[C@@H]2COc3cc(-c4ccc(N5CCC(O)CC5)nc4)ccc3N12` — recorded melting point = > 198 °C

Entry `C[C@@H](O)C(=O)c1ccc(-c2ccc3c(c2)OC[C@H]2[C@H](CO)OC(=O)N32)cn1` , melting point reported as 164 to 166 °C

melting point recorded for this compound, `CN1CCC[C@H]2CN(c3ccc(-c4ccc5c(c4)OC[C@H]4[C@H](CO)OC(=O)N54)cn3)C[C@H]21` , is 169 to 171 °C

Lookup result for `O=C1O[C@@H](CO)[C@@H]2COc3cc(-c4ccc(N5C[C@@H]6CCCN[C@@H]6C5)nc4)ccc3N12` ; measured melting point: 210 to 212 °C

* * *

- Experimental Details: In vivo pharmacokinetic assays in rats (intragastric and intravenous), plasma Compound 14 by LC-MS/MS
- Design: species or system SD rats
- Cond: male, SD, rat, in vivo, iv, 5 mg/kg, rats, 5 mg/kg Compound 14 intravenous injection; average value; read-out: AUC0-t
Result Type: AUC0-t (ng·h/mL)
Kindly provide the numeric value in ng·h/mL only, without the unit symbol.

Given item CN1CC(c2ccc(-c3ccc4c(c3)OC[C@H]3[C@H](CO)OC(=O)N43)cn2)OC1=O (stereo partly shown) , the value recorded as its AUC0-t is 1540

* * *

- Experimental Details: In vivo pharmacokinetic assays in rats (intragastric and intravenous), plasma Compound 14 by LC-MS/MS
- Design: species or system SD rats
- Cond: male, SD, rat, in vivo, iv, 5 mg/kg, rats, 5 mg/kg Compound 14 intravenous injection; average value
Result Type: half-life (h)
Numeric only. Scale: h

Just so you know, measured half-life for CN1CC(c2ccc(-c3ccc4c(c3)OC[C@H]3[C@H](CO)OC(=O)N43)cn2)OC1=O (stereo partly shown) came out at 2.51

* * *

Please go through the items and note down their MIC.
- Test system: Staphylococcus aureus sensitive strains (5 strains)
- Experimental Details: In vitro antibacterial activity, MIC by agar double dilution method
- Format: cell-based
- Cond: clinical isolates

Query O=C1O[C@@H](CO)[C@@H]2COc3cc(-c4ccc(C5(O)CCCC5)nc4)ccc3N12 [Compound 10] yields MIC of 2 µg/mL

Reported MIC of O=C1CNCCN1c1ccc(-c2ccc3c(c2)OC[C@H]2[C@H](CO)OC(=O)N32)cn1 [Compound 31] : 2 to 4 µg/mL

Documented MIC of NC1(c2ccc(-c3ccc4c(c3)OC[C@H]3[C@H](CO)OC(=O)N43)cn2)CC1 [Compound 29] : 2 to 4 µg/mL

Summary for this molecule, O=C1COCCN1c1ccc(-c2ccc3c(c2)OC[C@H]2[C@H](CO)OC(=O)N32)cn1 [Compound 19] : MIC is 2 to 4 µg/mL

Query O=C1O[C@@H](CO)[C@@H]2COc3cc(-c4ccc(N5C[C@@H]6CCCN[C@@H]6C5)nc4)ccc3N12 [Compound 32] yields MIC of 4 to 8 µg/mL

MIC in this record for CN1CCN(c2ccc(-c3ccc4c(c3)OC[C@H]3[C@H](CO)OC(=O)N43)cn2)C(=O)C1 [Compound 20] : 2 to 4 µg/mL

Please fill in: MIC reported for Cc1cc(N2CCOC2=O)ncc1-c1ccc2c(c1)OC[C@H]1[C@H](CO)OC(=O)N21 [Compound 22] = 0.5 to 1 µg/mL

Reported MIC ( CN1C[C@H](c2ccc(-c3ccc4c(c3)OC[C@H]3[C@H](CO)OC(=O)N43)cn2)OC1=O [Compound 28] ) = 2 µg/mL

molecule CN1C[C@@H](c2ccc(-c3ccc4c(c3)OC[C@H]3[C@H](CO)OC(=O)N43)cn2)OC1=O [Compound 27] , MIC observed: 1 µg/mL

Lab book: MIC of NCC1CN(c2ccc(-c3ccc4c(c3)OC[C@H]3[C@H](CO)OC(=O)N43)cn2)C(=O)O1 (stereo partly shown) [Compound 33] noted as 1 to 2 µg/mL

Looking up N#Cc1ccc(-c2ccc3c(c2)OC[C@H]2[C@H](CO)OC(=O)N32)cn1 [Compound 3] , I see its MIC listed as 0.25 to 0.5 µg/mL

Record summary for CC(C)(O)c1ccc(-c2ccc3c(c2)OC[C@H]2[C@H](CO)OC(=O)N32)cn1 [Compound 7] : reported MIC = 1 to 4 µg/mL

In plain terms, O=C1OCCN1c1ccc(-c2ccc3c(c2)OC[C@H]2[C@H](CO)OC(=O)N32)cn1 [Compound 5] has a documented MIC of 0.5 to 1 µg/mL

Entry CN1CC(c2ccc(-c3ccc4c(c3)OC[C@H]3[C@H](CO)OC(=O)N43)cn2)OC1=O (stereo partly shown) [Compound 14] ; MIC = 0.5 to 1 µg/mL

Looking up O=C1OC(c2ccc(-c3ccc4c(c3)OC[C@H]3[C@H](CO)OC(=O)N43)cn2)CN1Cc1ccccc1 (stereo partly shown) [Compound 16] , I found its MIC recorded as 1 to 2 µg/mL

What the record says about CC(O)c1ccc(-c2ccc3c(c2)OC[C@H]2[C@H](CO)OC(=O)N32)cn1 (stereo partly shown) [Compound 8] : MIC is 1 to 2 µg/mL

* * *

- System: Streptococcus pneumoniae resistant strains (4 strains)
- Experimental Details: In vitro antibacterial activity, MIC by agar double dilution method
- Assay type: cell-based
- Cond: clinical isolates
Result Type: MIC

The molecule NCC1CN(c2ccc(-c3ccc4c(c3)OC[C@H]3[C@H](CO)OC(=O)N43)cn2)C(=O)O1 (some centres unmarked) showed MIC equal to 2 µg/mL

Item: `N#Cc1ccc(-c2ccc3c(c2)OC[C@H]2[C@H](CO)OC(=O)N32)cn1` | MIC: 0.25 to 0.5 µg/mL

`O=C1O[C@@H](CO)CN1c1ccc(-c2ccc3c(c2)OC[C@H]2[C@H](CO)OC(=O)N32)cn1` yielded MIC of 1 µg/mL

Sure, the documented MIC for CC(=O)NC[C@H]1CN(c2ccc(N3CCOCC3)c(F)c2)C(=O)O1 [LZ, linezolid, reference compound] is 2 µg/mL

Form: molecule = `O=C1CNCCN1c1ccc(-c2ccc3c(c2)OC[C@H]2[C@H](CO)OC(=O)N32)cn1` ; MIC = 4 µg/mL

Value of measured MIC for the entry O=C1O[C@@H](CO)[C@@H]2COc3cc(-c4ccc(C(O)CO)nc4)ccc3N12 (some centres unmarked) : 1 to 2 µg/mL

Measured MIC, O=C1O[C@@H](CO)[C@@H]2COc3cc(-c4ccc(C(O)C5CC5)nc4)ccc3N12 (some centres unmarked) : 1 to 2 µg/mL

# MIC (molecule: `CN1CCN(c2ccc(-c3ccc4c(c3)OC[C@H]3[C@H](CO)OC(=O)N43)cn2)C(=O)C1` ) is 4 to 8 µg/mL

Memo: `O=C1COCCN1c1ccc(-c2ccc3c(c2)OC[C@H]2[C@H](CO)OC(=O)N32)cn1` , reported MIC: 2 to 4 µg/mL

MIC measured on `CC(=O)c1ccc(-c2ccc3c(c2)OC[C@H]2[C@H](CO)OC(=O)N32)cn1` = 8 to 16 µg/mL

Measured MIC of `O=C1OCCN1c1ccc(-c2ccc3c(c2)OC[C@H]2[C@H](CO)OC(=O)N32)cn1` : 0.5 to 1 µg/mL

Quick note, MIC for `O=C1O[C@H](CO)CN1c1ccc(-c2ccc3c(c2)OC[C@H]2[C@H](CO)OC(=O)N32)cn1` landed at 1 µg/mL

The molecule listed as `C[C@@H](O)C(=O)c1ccc(-c2ccc3c(c2)OC[C@H]2[C@H](CO)OC(=O)N32)cn1` has a reported MIC of 0.25 to 0.5 µg/mL

Please fill in: MIC reported for `Cn1nnc(-c2ccc(-c3ccc4c(c3)OC[C@H]3[C@H](CO)OC(=O)N43)cn2)n1` = 1 to 2 µg/mL
